assay: Drug concentration in brain tissue and plasma of SD rats; type: in vivo; conditions: male, Sprague-Dawley (SD), brain, po; SD rat, p.o. 30 mg/kg, 2 h; read-out: Drug concentration in brain
measurement.name: concentration at 2 h (nM)
Entry rule: numbers only, all in nM.

Request: What concentration at 2 h value was documented for this compound, COc1ccc(-n2nccn2)c(C(=O)N2C(c3nc4ccc(OC)cc4[nH]3)CC3CC32)c1 (stereo not shown) ?
Response: 212

* * *

assay: Drug concentration in brain tissue and plasma of SD rats; type: in vivo; settings: male, Sprague-Dawley (SD), plasma, po; SD rat, p.o. 30 mg/kg, 0.5 h; read-out: Drug concentration in plasma
measurement.name: concentration at 0.5 h (µM)
Write the value in µM as a bare number.

Request: What value of concentration at 0.5 h has been recorded for this entry: COc1ccc(-n2nccn2)c(C(=O)N2C(c3nc4ccc(OC)cc4[nH]3)CC3CC32)c1 (stereo not shown) [Compound 8]
Response: 5.6

* * *

assay: Pharmacokinetic parameters in Beagle dog plasma; format: in vivo; settings: male, plasma, iv, i.v. 1 mg/kg
measurement.name: clearance (mL/min/kg)
Write down the numeric answer in mL/min/kg and omit the unit.

Request: What value of measured clearance is listed for COc1ccc(-n2nccn2)c(C(=O)N2C(c3nc4ccc(OC)cc4[nH]3)CC3CC32)c1 (stereo not shown) ?
Response: 2.57

* * *

test: Drug concentration in brain tissue and plasma of SD rats; type: in vivo; conditions: male, Sprague-Dawley (SD), brain, po; SD rat, p.o. 30 mg/kg, 0.5 h; read-out: Drug concentration in brain
measurement.name: concentration at 0.5 h (nM)
State just the number; it will be interpreted in nM.

Request: // query concentration at 0.5 h value for entry COc1ccc(-n2nccn2)c(C(=O)N2C(c3nc4ccc(OC)cc4[nH]3)CC3CC32)c1 (stereo not shown)
Response: 1390

* * *

Molecular target: OX1R (Homo sapiens, UniProt O43613)
Sequence (O43613 1-425): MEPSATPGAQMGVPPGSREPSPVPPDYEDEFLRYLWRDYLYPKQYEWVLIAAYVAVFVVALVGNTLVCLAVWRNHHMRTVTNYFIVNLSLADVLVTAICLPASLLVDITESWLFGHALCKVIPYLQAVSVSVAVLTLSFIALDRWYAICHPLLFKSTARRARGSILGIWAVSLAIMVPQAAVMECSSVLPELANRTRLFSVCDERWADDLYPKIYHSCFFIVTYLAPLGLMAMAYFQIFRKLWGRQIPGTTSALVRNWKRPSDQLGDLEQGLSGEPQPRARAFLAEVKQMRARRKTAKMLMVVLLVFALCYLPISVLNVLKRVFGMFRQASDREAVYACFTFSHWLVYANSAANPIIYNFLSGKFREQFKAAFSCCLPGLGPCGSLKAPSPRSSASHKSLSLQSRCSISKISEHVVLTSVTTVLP
Test: FLIPR intracellular calcium antagonism test, HEK293-OX1R cells
Settings: Orexin A at EC70, read-out: hOXIR IC50
measurement.name: pIC50
Lab note: report pIC50 as minus log10 of the concentration in molar units, number only.

>>> df
                                   compound                          target_desc  measurement_name  numeric_result
0  COc1ccc2[nH]c([C@@H]3C[C@H]4C[C@H]4N3C(=O)c3cc(Cl)ccc3-n3nccn3)nc2c1  OX1R (Homo sapiens, UniProt O43613)             pIC50            5.98
1  COc1ccc2[nH]c([C@@H]3C[C@H]4C[C@H]4N3C(=O)c3cc(C)ccc3-c3ncccn3)nc2c1  OX1R (Homo sapiens, UniProt O43613)             pIC50            5.61
2  COc1ccc2[nH]c([C@@H]3C[C@H]4C[C@H]4N3C(=O)c3c(F)cccc3-n3nccn3)nc2c1  OX1R (Homo sapiens, UniProt O43613)             pIC50            5.89
3  COc1ccc(-n2nccn2)c(C(=O)N2C(c3nc4ccc(OC)cc4[nH]3)CC3CC32)c1 (stereo not shown)  OX1R (Homo sapiens, UniProt O43613)             pIC50            5.75
4  COc1ccc2nc([C@@H]3C[C@H]4C[C@H]4N3C(=O)c3cc(C)ccc3-n3nccn3)[nH]c2c1  OX1R (Homo sapiens, UniProt O43613)             pIC50            6.06

Request: # get_value(readout='pIC50', item= `COc1ccc2nc([C@@H]3[C@H]4C[C@H]4CN3C(=O)c3c(F)cccc3-n3nccn3)[nH]c2c1` )
Response: 5.85

* * *

assay: Pharmacokinetic parameters in Beagle dog plasma; type: in vivo; details: male, plasma, po, p.o. 5 mg/kg
measurement.name: Tmax (h)
Lab book: enter the figure in h, no units written.

Request: Quick check: Tmax of COc1ccc(-n2nccn2)c(C(=O)N2C(c3nc4ccc(OC)cc4[nH]3)CC3CC32)c1 (stereo not shown) ?
Response: 1

Origin of the recorded values: patent US12583841B2
